Give measured melting point for each item. Keep answers brief.

// Input: O=C(N[C@H]1CCCNC1=O)c1cc(F)cc(F)c1 . Output its melting point only.
198 to 199 °C

For the molecule CCCCCCCCc1ccc(C(=O)N[C@H]2CCCNC2=O)cc1 , give its measured melting point value.
122 to 123 °C

Please give measured melting point of the following entry: O=C(N[C@H]1CCCNC1=O)c1cccc(F)c1F
160 to 162 °C

Report melting point for O=C(N[C@H]1CCCNC1=O)c1ccc(F)cc1F
140 to 141 °C

For CCCCc1ccc(C(=O)N[C@@H]2CCCNC2=O)cc1 , write its melting point.
116 to 117 °C

Report measured melting point; entry is CC(C)(C)c1ccc(C(=O)N[C@@H]2CCCNC2=O)cc1
193 to 194 °C

Using known records, supply melting point for CCCCCCCCc1ccc(C(=O)N[C@H]2CCCCNC2=O)cc1
159 to 160 °C

Give melting point for the following molecule: CCCCCCc1ccc(C(=O)N[C@H]2CCCCNC2=O)cc1
167 to 168 °C

Determine its reported melting point: O=C(N[C@H]1CCCNC1=O)c1cccc(C(F)(F)F)c1
148 to 150 °C

Please look at this molecule and report its melting point: O=C(N[C@H]1CCCNC1=O)c1c(F)cccc1F
190 to 194 °C

Please give measured melting point of the following entry: CCc1ccc(C(=O)N[C@H]2CCCCNC2=O)cc1
218 to 219 °C

Specify measured melting point for CC(C)(C)c1ccc(C(=O)N[C@H]2CCCNC2=O)cc1 .
195 to 196 °C
